- Test system: UV4
- Measurement protocol: Cytotoxicity (growth inhibition), 4 h drug exposure, methylene blue staining
- Assay type: cell-based, rodent
- Protocol conditions: Cricetulus griseus; UV4 mutant AA8 line defective in excision repair; 4 hours exposure, then three days incubation

Compound | Units of measure | IC50
COc1cc2cc(C(=O)N3CC(COS(C)(=O)=O)c4c3cc(N)c3ccccc43)[nH]c2c(OC)c1OC (stereo not shown) [15o] | nM | 665
